- SUBJECT_OF_TEST: Mu-type opioid receptor (Homo sapiens, UniProt P35372)
- Sequence (P35372 whole entry): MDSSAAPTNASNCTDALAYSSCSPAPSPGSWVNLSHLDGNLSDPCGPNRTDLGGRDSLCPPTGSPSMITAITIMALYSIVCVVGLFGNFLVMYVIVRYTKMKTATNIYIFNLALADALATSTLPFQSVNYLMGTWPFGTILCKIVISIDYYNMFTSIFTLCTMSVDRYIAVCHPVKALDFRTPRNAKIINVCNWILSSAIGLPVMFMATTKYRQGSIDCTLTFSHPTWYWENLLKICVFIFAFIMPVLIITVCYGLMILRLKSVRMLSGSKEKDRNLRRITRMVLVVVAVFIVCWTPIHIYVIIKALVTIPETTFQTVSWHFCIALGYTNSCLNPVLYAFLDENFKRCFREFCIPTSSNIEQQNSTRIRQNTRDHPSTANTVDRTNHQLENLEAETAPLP
- PROTOCOL_DESCRIPTION: Displacement of [3H]diprenorphine from recombinant mu opioid receptor expressed in C6 cells
RECORDED_ENDPOINT: Ki (nM)
Use nM as the unit, but write only the number.

1) CO[C@H]1CC[C@H]2[C@H]3Cc4cccc5c4[C@@]2(CCN3C)[C@H]1O5 = 524
2) COc1ccc2c3c1O[C@H]1[C@@H](OC)C=C[C@H]4[C@@H](C2)N(C)CC[C@@]341 = 1910

Input: Provide Ki value for the following molecule: CN1CC[C@]23c4c5cccc4O[C@H]2CCC[C@H]3[C@H]1C5
Output: 22.9

Input: Provide Ki value for the following molecule: CN1CC[C@]23c4c5ccc(O)c4O[C@H]2CC=C[C@H]3[C@H]1C5
Output: 2.1

Input: Provide Ki value for the following molecule: COc1ccc2c3c1O[C@H]1CC=C[C@H]4[C@@H](C2)N(C)CC[C@]314
Output: 305

Input: Provide Ki value for the following molecule: CN1CC[C@]23c4c5cccc4O[C@H]2[C@@H](O)CC[C@H]3[C@H]1C5
Output: 122

---

- PROTOCOL_DESCRIPTION: Selectivity for recombinant mu opioid receptor over recombinant delta opioid receptor
Returns fulfilled if the recorded Ratio Ki is greater than or equal to 20, and not fulfilled otherwise.

1) COc1ccc2c3c1O[C@H]1CC=C[C@H]4[C@@H](C2)N(C)CC[C@]314 = not fulfilled

Input: Threshold query (Ratio Ki >= 20) on CN1CC[C@]23c4c5cccc4O[C@H]2[C@@H](O)CC[C@H]3[C@H]1C5
Output: fulfilled

Input: Threshold query (Ratio Ki >= 20) on CN1CC[C@]23c4c5ccc(O)c4O[C@H]2CC=C[C@H]3[C@H]1C5
Output: not fulfilled

Input: Threshold query (Ratio Ki >= 20) on COc1ccc2c3c1O[C@H]1[C@@H](OC)C=C[C@H]4[C@@H](C2)N(C)CC[C@@]341
Output: not fulfilled

Input: Threshold query (Ratio Ki >= 20) on CO[C@H]1CC[C@H]2[C@H]3Cc4cccc5c4[C@@]2(CCN3C)[C@H]1O5
Output: not fulfilled

Input: Threshold query (Ratio Ki >= 20) on CN1CC[C@]23c4c5cccc4O[C@H]2CCC[C@H]3[C@H]1C5
Output: not fulfilled
